Origin of values: patent US9556165B2

# System: P. aeruginosa 2297 (AmpC wt)
# assay notes: MIC determination, broth microdilution (CLSI)
# Type: cell-based
# condition parameters: Pseudomonas aeruginosa, strain 7
Parameter: MIC. Scope: all listed entries.
// units = µg/mL; emit number, no label

compound="Cc1cc(OCCO/N=C(\\C(=O)N[C@@H]2C(=O)N(S(=O)(=O)O)[C@H]2C)c2csc(N)n2)ccc1C(=N)N [Example 14]" value=8
compound="C[C@H]1[C@H](NC(=O)/C(=N\\OCCOc2ccc(C(=N)N)nc2)c2csc(N)n2)C(=O)N1S(=O)(=O)O [Example 3]" value=4
compound="CC1(C)[C@H](NC(=O)/C(=N\\OCCOc2ccc(C(=N)N[C@H](CN)CO)cc2)c2csc(N)n2)C(=O)N1OS(=O)(=O)O [Example 85]" value=8

Let us examine a further case.
Query: Note MIC for the compound shown: C[C@H]1[C@H](NC(=O)/C(=N\OCCOc2ccc(C(=N)NCCN)cc2)c2csc(N)n2)C(=O)N1OCS(=O)(=O)O [Example 77]
Reply: 16

----------
# Tested on: E. cloacae 34654
# assay notes: MIC determination, broth microdilution (CLSI)
# Assay type: cell-based
# condition parameters: Enterobacter cloacae, 34654, strain 3
quantity kind: MIC (µg/mL)
// units = µg/mL; emit number, no label

Here is how some compounds turned out for MIC.
compound=CC1(C)[C@H](NC(=O)/C(=N\O[C@@H](COc2ccc(C(=N)NC3CCNCC3)cc2)C(=O)O)c2csc(N)n2)C(=O)N1OS(=O)(=O)O quantity_kind=MIC value=0.125
compound=CC(=N)N1CC[C@H](NC(=N)c2ccc(OCCO/N=C(\C(=O)N[C@@H]3C(=O)N(OS(=O)(=O)O)C3(C)C)c3csc(N)n3)cc2)C1 quantity_kind=MIC value=1
compound="CC1(C)[C@H](NC(=O)/C(=N\\O[C@@H](COc2ccc(C(=N)NC3CCCNC3)cc2)C(=O)O)c2csc(N)n2)C(=O)N1OS(=O)(=O)O (stereo partly drawn)" quantity_kind=MIC value=0.125
compound=CN(C)CCNC(=N)c1ccc(OCCO/N=C(\C(=O)N[C@@H]2C(=O)N(OS(=O)(=O)O)C2(C)C)c2csc(N)n2)cc1 quantity_kind=MIC value=0.5
compound=Cc1cc(OCCO/N=C(\C(=O)N[C@@H]2C(=O)N(S(=O)(=O)O)[C@H]2C)c2csc(N)n2)ccc1C(=N)N quantity_kind=MIC value=0.5

Let us examine a further case.
Query: Note MIC for the compound shown: CC1(C)[C@H](NC(=O)/C(=N\OCCOc2ccc(C(=N)N)nc2)c2csc(N)n2)C(=O)N1OS(=O)(=O)O
Reply: 0.5

----------
# System: E. coli ATCC25922
# assay notes: MIC determination, broth microdilution (CLSI)
# Assay type: cell-based
# condition parameters: Escherichia coli, ATCC25922, strain 1
quantity kind: MIC (µg/mL)
// units = µg/mL; emit number, no label

compound=CC1(C)[C@H](NC(=O)/C(=N\O[C@@H](COc2ccc(C(=N)NC(CN)CN)cc2)C(=O)O)c2csc(N)n2)C(=O)N1OS(=O)(=O)O subject_of_test="E. coli ATCC25922" value=0.125

Query: Note MIC for the compound shown: C[C@H]1[C@H](NC(=O)/C(=N\OCCOc2ccc(C(=N)NNC=O)cc2)c2csc(N)n2)C(=O)N1S(=O)(=O)O
Reply: 0.5

Query: Note MIC for the compound shown: C[C@H]1[C@H](NC(=O)/C(=N\OCCOc2nnc(C(=N)N)s2)c2csc(N)n2)C(=O)N1S(=O)(=O)O
Reply: 0.5

Query: Note MIC for the compound shown: CC1(C)[C@H](NC(=O)/C(=N\OCCOc2ccc(C3=NCC(N)CN3)cc2)c2csc(N)n2)C(=O)N1OS(=O)(=O)O (stereo partly shown)
Reply: 0.25

Query: Note MIC for the compound shown: CC1(C)[C@H](NC(=O)/C(=N\OC(CCO)COc2ccc(C(=N)N)cc2)c2csc(N)n2)C(=O)N1OS(=O)(=O)O (single isomer, unassigned) [Example 81A]
Reply: 4

Query: Note MIC for the compound shown: CC1(C)[C@H](NC(=O)/C(=N\OCCOc2ccc(C(=N)N[C@H]3CCNC3)cc2)c2csc(N)n2)C(=O)N1OS(=O)(=O)O
Reply: 0.25

Query: Note MIC for the compound shown: C[C@H]1[C@H](NC(=O)/C(=N\OCC(C)(C)Oc2ccc(C(=N)N)cc2)c2csc(N)n2)C(=O)N1S(=O)(=O)O
Reply: 2

Query: Note MIC for the compound shown: C[C@H]1[C@H](NC(=O)/C(=N\OCCOc2ccc(NC(=N)N)cc2)c2csc(N)n2)C(=O)N1S(=O)(=O)O
Reply: 0.5

Query: Note MIC for the compound shown: CC1(C)[C@H](NC(=O)/C(=N\O[C@@H](COc2ccc(C(=N)NCC3CCCCN3)cc2)C(=O)O)c2csc(N)n2)C(=O)N1OS(=O)(=O)O (stereo partly shown)
Reply: 0.125

Query: Note MIC for the compound shown: C[C@H]1[C@H](NC(=O)/C(=N\OCCOc2ccc(C(=N)NN)cc2)c2csc(N)n2)C(=O)N1S(=O)(=O)O
Reply: 0.5

Query: Note MIC for the compound shown: C[C@H]1[C@H](NC(=O)/C(=N\OCCNc2ccc(C(=N)N)cc2)c2csc(N)n2)C(=O)N1S(=O)(=O)O
Reply: 1

Query: Note MIC for the compound shown: CC1(C)[C@H](NC(=O)/C(=N\O[C@@H](COc2ccc(C(=N)NCCNc3ncccn3)cc2)C(=O)O)c2csc(N)n2)C(=O)N1OS(=O)(=O)O
Reply: 0.5

Query: Note MIC for the compound shown: CNC(=N)c1ccc(OCCO/N=C(\C(=O)N[C@@H]2C(=O)N(S(=O)(=O)O)[C@H]2C)c2csc(N)n2)cc1
Reply: 0.125

----------
# Tested on: P. aeruginosa PAO1
# assay notes: MIC determination, broth microdilution (CLSI)
# Type: cell-based
# condition parameters: strain 6
Parameter: strain 6 MIC. Scope: all listed entries.
Could you give the number and then its unit, please?

Here is how some compounds turned out for strain 6 MIC.
compound="CC1(C)[C@H](NC(=O)/C(=N\\O[C@@H](COc2ccc(C(=N)NC3CC3N)cc2)C(=O)O)c2csc(N)n2)C(=O)N1OS(=O)(=O)O (single isomer, unassigned) [Example 100A]" subject_of_test="P. aeruginosa PAO1" quantity_kind="strain 6 MIC" value="2 µg/mL"
compound="CC1(C)[C@H](NC(=O)/C(=N\\OC(CO)COc2ccc(C(=N)N)cc2)c2csc(N)n2)C(=O)N1OS(=O)(=O)O (mixture of isomers) [Example 45B]" subject_of_test="P. aeruginosa PAO1" quantity_kind="strain 6 MIC" value="16 µg/mL"
compound="CC1(C)[C@H](NC(=O)/C(=N\\OC(COc2ccc(C(=N)N)nc2)C(=O)O)c2csc(N)n2)C(=O)N1OS(=O)(=O)O (mixture of isomers) [Example 36A]" subject_of_test="P. aeruginosa PAO1" quantity_kind="strain 6 MIC" value="4 µg/mL"
compound="CC1(C)[C@H](NC(=O)/C(=N\\OC(COc2ccc(C(=N)N)nc2)C(=O)O)c2csc(N)n2)C(=O)N1OS(=O)(=O)O (mixture of isomers) [Example 36B]" subject_of_test="P. aeruginosa PAO1" quantity_kind="strain 6 MIC" value="16 µg/mL"
compound="CC1(C)[C@H](NC(=O)/C(=N\\OC(COc2ccc(C(=N)NCCN)cc2)C(=O)O)c2csc(N)n2)C(=O)N1OS(=O)(=O)O (mixture of isomers) [Example 44A]" subject_of_test="P. aeruginosa PAO1" quantity_kind="strain 6 MIC" value="1 µg/mL"
compound="CC1(C)[C@H](NC(=O)/C(=N\\OC(COc2ccc(C(=N)NCCN)cc2)C(=O)O)c2csc(N)n2)C(=O)N1OS(=O)(=O)O (mixture of isomers) [Example 44B]" subject_of_test="P. aeruginosa PAO1" quantity_kind="strain 6 MIC" value="8 µg/mL"

Query: // fetch strain 6 MIC; item: CC1(C)[C@H](NC(=O)/C(=N\OC(COc2ccc(C(=N)N)c(O)c2)C(=O)O)c2csc(N)n2)C(=O)N1OS(=O)(=O)O (mixture of isomers) [Example 34B] ; system: P. aeruginosa PAO1
Reply: 32 µg/mL

Query: // fetch strain 6 MIC; item: CC1(C)[C@H](NC(=O)/C(=N\OC(COc2ccc(C(=N)N)c(O)c2)C(=O)O)c2csc(N)n2)C(=O)N1OS(=O)(=O)O (mixture of isomers) [Example 34A] ; system: P. aeruginosa PAO1
Reply: 8 µg/mL

----------
# Tested on: B. fragilis 6688
# assay notes: MIC determination, broth microdilution (CLSI)
# Type: cell-based
# condition parameters: strain 15
Parameter: strain 15 MIC. Scope: all listed entries.
// units = µg/mL; emit number, no label

molecule="CC1(C)[C@H](NC(=O)/C(=N\\OC(COc2ccc(C(=N)N)nc2)C(=O)O)c2csc(N)n2)C(=O)N1OS(=O)(=O)O (mixture of isomers) [Example 36A]" subject_of_test="B. fragilis 6688" quantity_kind="strain 15 MIC" value=8
molecule="CC1(C)[C@H](NC(=O)/C(=N\\OC(COc2ccc(C(=N)N)cc2)C(=O)O)c2csc(N)n2)C(=O)N1OS(=O)(=O)O (mixture of isomers) [Example 27B]" subject_of_test="B. fragilis 6688" quantity_kind="strain 15 MIC" value=32
molecule="CC1(C)[C@H](NC(=O)/C(=N\\OC(COc2ccc(C(=N)N)cc2)C(=O)O)c2csc(N)n2)C(=O)N1OS(=O)(=O)O (mixture of isomers) [Example 27A]" subject_of_test="B. fragilis 6688" quantity_kind="strain 15 MIC" value=8

Let us examine a further case.
Query: Note strain 15 MIC for the molecule shown: CC1(C)[C@H](NC(=O)/C(=N\OC(COc2ccc(C(=N)N)nc2)C(=O)O)c2csc(N)n2)C(=O)N1OS(=O)(=O)O (mixture of isomers) [Example 36B]
Reply: 32
